// data source = ChEMBL document CHEMBL1140675

Molecular target: Cav1.2 (L-type calcium channel subunit alpha-1C) (Homo sapiens, UniProt Q13936)
Sequence (Q13936 whole entry): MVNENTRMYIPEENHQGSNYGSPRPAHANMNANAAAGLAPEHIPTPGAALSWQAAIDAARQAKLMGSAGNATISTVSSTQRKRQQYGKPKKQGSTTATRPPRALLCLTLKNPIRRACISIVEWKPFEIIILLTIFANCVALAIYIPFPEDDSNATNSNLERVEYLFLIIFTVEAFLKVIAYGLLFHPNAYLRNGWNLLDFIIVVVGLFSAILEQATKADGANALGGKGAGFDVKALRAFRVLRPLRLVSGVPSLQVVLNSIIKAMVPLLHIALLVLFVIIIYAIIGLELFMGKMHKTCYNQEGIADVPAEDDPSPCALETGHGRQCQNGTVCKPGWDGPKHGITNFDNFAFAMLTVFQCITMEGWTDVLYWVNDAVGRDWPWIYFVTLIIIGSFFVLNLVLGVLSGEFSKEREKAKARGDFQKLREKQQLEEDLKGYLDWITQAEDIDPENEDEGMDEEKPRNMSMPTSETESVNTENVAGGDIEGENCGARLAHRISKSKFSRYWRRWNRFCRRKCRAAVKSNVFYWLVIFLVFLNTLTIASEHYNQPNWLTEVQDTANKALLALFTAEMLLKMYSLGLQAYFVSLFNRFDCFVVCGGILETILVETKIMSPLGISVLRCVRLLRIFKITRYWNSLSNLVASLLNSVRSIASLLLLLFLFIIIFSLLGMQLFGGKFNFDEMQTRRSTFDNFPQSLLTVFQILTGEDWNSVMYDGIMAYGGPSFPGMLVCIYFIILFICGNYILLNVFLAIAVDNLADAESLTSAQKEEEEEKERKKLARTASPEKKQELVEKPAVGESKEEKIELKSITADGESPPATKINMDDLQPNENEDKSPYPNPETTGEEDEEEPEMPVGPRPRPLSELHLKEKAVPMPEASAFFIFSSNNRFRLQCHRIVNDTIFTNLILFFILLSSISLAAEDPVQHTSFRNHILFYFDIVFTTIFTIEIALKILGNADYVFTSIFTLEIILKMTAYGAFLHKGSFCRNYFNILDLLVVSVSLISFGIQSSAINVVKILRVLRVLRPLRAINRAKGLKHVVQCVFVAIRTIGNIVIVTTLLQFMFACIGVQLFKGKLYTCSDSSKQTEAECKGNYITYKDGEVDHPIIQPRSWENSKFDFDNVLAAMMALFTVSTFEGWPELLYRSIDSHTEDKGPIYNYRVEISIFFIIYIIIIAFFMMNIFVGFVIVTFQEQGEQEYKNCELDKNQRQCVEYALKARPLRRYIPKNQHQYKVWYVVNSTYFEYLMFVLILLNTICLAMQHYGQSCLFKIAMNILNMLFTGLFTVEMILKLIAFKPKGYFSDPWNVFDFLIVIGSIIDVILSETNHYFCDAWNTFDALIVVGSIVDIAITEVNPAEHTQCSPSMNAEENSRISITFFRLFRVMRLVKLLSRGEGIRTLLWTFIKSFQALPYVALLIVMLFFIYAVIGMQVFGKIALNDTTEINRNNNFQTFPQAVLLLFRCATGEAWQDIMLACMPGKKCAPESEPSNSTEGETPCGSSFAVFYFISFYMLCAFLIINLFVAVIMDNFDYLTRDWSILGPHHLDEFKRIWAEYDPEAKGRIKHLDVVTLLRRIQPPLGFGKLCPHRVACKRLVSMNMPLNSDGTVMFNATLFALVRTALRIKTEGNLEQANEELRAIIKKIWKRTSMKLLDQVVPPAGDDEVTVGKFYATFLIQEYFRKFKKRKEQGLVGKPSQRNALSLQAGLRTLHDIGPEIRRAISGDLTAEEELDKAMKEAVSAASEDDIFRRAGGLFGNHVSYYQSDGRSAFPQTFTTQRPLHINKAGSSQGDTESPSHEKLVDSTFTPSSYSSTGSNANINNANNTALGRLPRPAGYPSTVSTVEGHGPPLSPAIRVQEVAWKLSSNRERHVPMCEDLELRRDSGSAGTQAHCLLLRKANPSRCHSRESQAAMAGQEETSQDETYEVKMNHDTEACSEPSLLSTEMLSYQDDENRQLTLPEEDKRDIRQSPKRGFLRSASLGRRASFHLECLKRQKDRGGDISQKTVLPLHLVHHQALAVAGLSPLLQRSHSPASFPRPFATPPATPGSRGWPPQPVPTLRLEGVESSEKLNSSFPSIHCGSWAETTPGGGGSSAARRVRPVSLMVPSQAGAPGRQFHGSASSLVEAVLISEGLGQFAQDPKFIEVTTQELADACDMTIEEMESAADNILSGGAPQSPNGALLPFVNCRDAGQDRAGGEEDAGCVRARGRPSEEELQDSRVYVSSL
Test: Displacement of [3H]diltiazem from human Cav1.2 expressed in HEK293 cells at 10 uM
Type: cell-based
Details: HEK293 cells expressing human Cav1.2, probe [3H]diltiazem
Each entry gets no (0) if its inhibition at 10 µM stays under 40%, and yes (1) if its inhibition at 10 µM is 40% or above.

Illustrative cases are given below, each with its answer.
CC(C)N1C(=O)[C@H](NC(=O)[C@@H](Cc2c(F)cccc2C(F)(F)F)NC(=O)OC(C)(C)C)CCc2ccccc21 ... yes (1)
CC(C)N1C(=O)[C@H](NC(=O)[C@@H](Cc2cccc(F)c2C(F)(F)F)NC(=O)OC(C)(C)C)CCc2ccccc21 ... yes (1)
CC(C)N1C(=O)[C@H](NC(=O)[C@@H](Cc2ccccc2F)NC(=O)OC(C)(C)C)CCc2ccccc21 ... no (0)
CC(C)N1C(=O)[C@H](NC(=O)[C@@H](Cc2cccc(C(F)(F)F)c2)NC(=O)OC(C)(C)C)CCc2ccccc21 ... no (0)
CC(C)N1C(=O)[C@H](NC(=O)[C@@H](Cc2ccc(F)cc2)NC(=O)OC(C)(C)C)CCc2ccccc21 ... no (0)

IN: Say whether "CC(C)N1C(=O)[C@H](NC(=O)[C@@H](Cc2cc(F)ccc2F)NC(=O)OC(C)(C)C)CCc2ccccc21" shows inhibition at 10 µM of 40% or more.
OUT: no (0)

IN: Could you please find out whether "CC(C)N1C(=O)[C@H](NC(=O)[C@@H](Cc2c(F)cccc2F)NC(=O)OC(C)(C)C)CCc2ccccc21" has inhibition at 10 µM that meets 40% or exceeds it?
OUT: no (0)

IN: Check if inhibition at 10 µM >= 40% (inclusive). Item: "CC(C)N1C(=O)[C@H](NC(=O)[C@@H](Cc2cccc(F)c2)NC(=O)OC(C)(C)C)CCc2ccccc21"
OUT: no (0)
